Where these numbers come from: patent US20230293485A1

Number of copies of viral genome (MOI = 0.05) overview
- Tested on: SARS-CoV-2
- Type: cell-based
- assay.setup: 25 μM drug, Vero E6, 48 h
parameter: Number of copies of viral genome (MOI = 0.05)

>>> print(df.to_string())
                                   compound      test_result
0  C=C1C(=O)O[C@@]23[C@H]1CC[C@@H](C)[C@@H]2CC[C@@]1(C)O[C@@H]31 [arteannuin B]    342654 copies
1  C[C@@H]1CC[C@H]2[C@@H](C)C(=O)O[C@@H]3O[C@@]4(C)CC[C@@H]1[C@]32OO4 [artemisinin]  61918172 copies
2  C[C@H]1[C@H](OC(=O)CCC(=O)O)O[C@@H]2O[C@@]3(C)CC[C@H]4[C@H](C)CC[C@@H]1[C@@]24OO3 [artesunate]  70210200 copies
3  CO[C@H]1O[C@@H]2O[C@@]3(C)CC[C@H]4[C@H](C)CC[C@@H]([C@H]1C)[C@@]24OO3 [artemether]  32850309 copies
4  C[C@H]1[C@@H](O)O[C@@H]2O[C@@]3(C)CC[C@H]4[C@H](C)CC[C@@H]1[C@@]24OO3 [dihydroartemisinin]  23363010 copies

====

- Tested on: Vero E6 cells
- assay.notes: Detection of drug cytotoxicity by CCK-8 kit
- Format: cell-based
- assay.setup: 1.56 μM drug, 48 h
Cell viability (% of negative control) overview
parameter: Cell viability (% of negative control)

>>> df
                                   compound                               parameter                   test_result
0  C=C1C(=O)O[C@@]23[C@H]1CC[C@@H](C)[C@@H]2CC[C@@]1(C)O[C@@H]31 [arteannuin B]  Cell viability (% of negative control)   90.63 % of negative control
1  C[C@H]1[C@@H](O)O[C@@H]2O[C@@]3(C)CC[C@H]4[C@H](C)CC[C@@H]1[C@@]24OO3 [dihydroartemisinin]  Cell viability (% of negative control)   98.80 % of negative control
2  C[C@@H]1CC[C@H]2[C@@H](C)C(=O)O[C@@H]3O[C@@]4(C)CC[C@@H]1[C@]32OO4 [artemisinin]  Cell viability (% of negative control)   98.45 % of negative control
3  C[C@H]1[C@H](OC(=O)CCC(=O)O)O[C@@H]2O[C@@]3(C)CC[C@H]4[C@H](C)CC[C@@H]1[C@@]24OO3 [artesunate]  Cell viability (% of negative control)   99.91 % of negative control
4  CO[C@H]1O[C@@H]2O[C@@]3(C)CC[C@H]4[C@H](C)CC[C@@H]([C@H]1C)[C@@]24OO3 [artemether]  Cell viability (% of negative control)  107.12 % of negative control

====

Cell viability (% of negative control) overview
- System: Vero E6 cells
- assay.notes: Detection of drug cytotoxicity by CCK-8 kit
- Format: cell-based
- assay.setup: 25 μM drug, 48 h
parameter: Cell viability (% of negative control)

>>> print(df.to_string())
                                   molecule                               parameter                   test_result
0  C[C@H]1[C@@H](O)O[C@@H]2O[C@@]3(C)CC[C@H]4[C@H](C)CC[C@@H]1[C@@]24OO3 [dihydroartemisinin]  Cell viability (% of negative control)   66.36 % of negative control
1  C=C1C(=O)O[C@@]23[C@H]1CC[C@@H](C)[C@@H]2CC[C@@]1(C)O[C@@H]31  Cell viability (% of negative control)   95.10 % of negative control
2  CO[C@H]1O[C@@H]2O[C@@]3(C)CC[C@H]4[C@H](C)CC[C@@H]([C@H]1C)[C@@]24OO3  Cell viability (% of negative control)  118.96 % of negative control
3  C[C@@H]1CC[C@H]2[C@@H](C)C(=O)O[C@@H]3O[C@@]4(C)CC[C@@H]1[C@]32OO4  Cell viability (% of negative control)  104.26 % of negative control
4  C[C@H]1[C@H](OC(=O)CCC(=O)O)O[C@@H]2O[C@@]3(C)CC[C@H]4[C@H](C)CC[C@@H]1[C@@]24OO3 [artesunate]  Cell viability (% of negative control)   84.24 % of negative control
